Biological target: recombinant human Cox-2 (r-hu Cox-2) (Homo sapiens, UniProt P35354)
Construct: made in house; host or cells: baculovirus/Sf9 insect cells (microsomes)
Sequence (P35354 18-604): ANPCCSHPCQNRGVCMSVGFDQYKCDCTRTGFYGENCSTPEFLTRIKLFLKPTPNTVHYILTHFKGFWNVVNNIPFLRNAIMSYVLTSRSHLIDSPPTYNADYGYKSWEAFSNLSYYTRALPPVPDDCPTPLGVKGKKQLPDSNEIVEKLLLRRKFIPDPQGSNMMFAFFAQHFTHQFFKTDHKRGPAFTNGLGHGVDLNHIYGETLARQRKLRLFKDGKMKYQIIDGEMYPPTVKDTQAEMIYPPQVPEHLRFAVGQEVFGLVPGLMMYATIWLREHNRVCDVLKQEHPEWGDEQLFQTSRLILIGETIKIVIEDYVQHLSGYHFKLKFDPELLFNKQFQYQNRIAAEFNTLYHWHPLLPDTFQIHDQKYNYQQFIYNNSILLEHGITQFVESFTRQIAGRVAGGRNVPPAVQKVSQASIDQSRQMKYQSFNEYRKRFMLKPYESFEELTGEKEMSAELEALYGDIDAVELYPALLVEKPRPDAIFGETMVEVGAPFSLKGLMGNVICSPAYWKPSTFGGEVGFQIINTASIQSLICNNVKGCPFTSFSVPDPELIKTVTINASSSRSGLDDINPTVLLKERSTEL
Experiment: Recombinant human PGHS-2 enzyme assay (RHUCX2)
Assay type: biochemical
Details: 1 μM
reported-metric: RHUCX2 % Inh. at Dose (μM)

[
  {
    "compound": "Cc1cc(-c2c(-c3ccc(S(N)(=O)=O)cc3)cnn(-c3ccc(F)cc3)c2=O)ccc1F [Example 390]",
    "measured-on": "recombinant human Cox-2 (r-hu Cox-2) (Homo sapiens, UniProt P35354)",
    "reported-metric": "RHUCX2 % Inh. at Dose (μM)",
    "assay-result": "72 @ 1%"
  },
  {
    "compound": "CS(=O)(=O)c1ccc(-c2cnn(-c3ccc(F)cc3)c(=O)c2C#Cc2ccccc2)cc1 [Example 231]",
    "measured-on": "recombinant human Cox-2 (r-hu Cox-2) (Homo sapiens, UniProt P35354)",
    "reported-metric": "RHUCX2 % Inh. at Dose (μM)",
    "assay-result": "90 @ 1%"
  },
  {
    "compound": "CS(=O)(=O)c1ccc(-c2cnn(CC(F)(F)F)c(=O)c2SC2CCCC2)cc1 [Example 283]",
    "measured-on": "recombinant human Cox-2 (r-hu Cox-2) (Homo sapiens, UniProt P35354)",
    "reported-metric": "RHUCX2 % Inh. at Dose (μM)",
    "assay-result": "71 @ 1%"
  },
  {
    "compound": "CS(=O)(=O)c1ccc(-c2cnn(CC(=O)c3ccc(F)cc3F)c(=O)c2-c2ccc(F)cc2)cc1 [Example 41]",
    "measured-on": "recombinant human Cox-2 (r-hu Cox-2) (Homo sapiens, UniProt P35354)",
    "reported-metric": "RHUCX2 % Inh. at Dose (μM)",
    "assay-result": "49 @ 1%"
  },
  {
    "compound": "Cc1ccc(-c2c(-c3ccc(S(N)(=O)=O)cc3)cnn(-c3ccc(F)cc3)c2=O)cc1F [Example 387]",
    "measured-on": "recombinant human Cox-2 (r-hu Cox-2) (Homo sapiens, UniProt P35354)",
    "reported-metric": "RHUCX2 % Inh. at Dose (μM)",
    "assay-result": "76 @ 1%"
  },
  {
    "compound": "CS(=O)(=O)c1ccc(-c2cnn(-c3ccoc3)c(=O)c2-c2ccc(F)cc2)cc1 [Example 183]",
    "measured-on": "recombinant human Cox-2 (r-hu Cox-2) (Homo sapiens, UniProt P35354)",
    "reported-metric": "RHUCX2 % Inh. at Dose (μM)",
    "assay-result": "97 @ 1%"
  },
  {
    "compound": "CS(=O)(=O)c1ccc(-c2cnn(Cc3ccccc3)c(=S)c2-c2ccc(F)cc2)cc1 [Example 32]",
    "measured-on": "recombinant human Cox-2 (r-hu Cox-2) (Homo sapiens, UniProt P35354)",
    "reported-metric": "RHUCX2 % Inh. at Dose (μM)",
    "assay-result": "96 @ 1%"
  },
  {
    "compound": "CC(C)CCc1c(-c2ccc(S(C)(=O)=O)cc2)cnn(CC(F)(F)F)c1=O [Example 209]",
    "measured-on": "recombinant human Cox-2 (r-hu Cox-2) (Homo sapiens, UniProt P35354)",
    "reported-metric": "RHUCX2 % Inh. at Dose (μM)",
    "assay-result": "79 @ 1%"
  },
  {
    "compound": "COc1ccc(CCOc2c(-c3ccc(S(C)(=O)=O)cc3)cnn(CC(F)(F)F)c2=O)cc1OC [Example 272]",
    "measured-on": "recombinant human Cox-2 (r-hu Cox-2) (Homo sapiens, UniProt P35354)",
    "reported-metric": "RHUCX2 % Inh. at Dose (μM)",
    "assay-result": "70 @ 1%"
  }
]
